Tested on: NCI-H1944;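 note: CTB read-out in 384-well plates, triplicate wells, NPI normalised per plate against 1 µM phenylarsine oxide (0) and 0.1% DMSO (1) controls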
Experiment: normalised cell viability (NPI; 0 = phenylarsine oxide control, 1 = DMSO control) (fraction of DMSO control); NCI-H1944 is a non-small cell lung cancer line; higher = more viable cells (less compound toxicity)
Details: glucocorticoid arm: hydrocortisone 2.75 uM pre-treated 2 days and continued; compound 5 µM; 6 days
In all, about 1,900 compounds were measured (“normalised cell viability (NPI; 0 = phenylarsine oxide control, 1 = DMSO control)”: median about 1, lowest 2% from about 0.039 on). The sample holds the lowest values, similar compounds and a random draw of the others, so the mix is not that of the screen.
Examples of compounds with documented normalised cell viability follow.
Give a plain numeric answer without units written out.

Would you please look over these solved cases?
- O=[N+]([O-])c1ccc(-c2nc(-c3ccc(F)cc3)c(-c3ccncc3)[nH]2)cc1: 0.865
- CCCCCCCCCCCCCCCCCCOCC(COP(=O)([O-])OCC[N+](C)(C)C)OC (centres undefined): 0.989
- Cc1c2oc3c(C)ccc(C(=O)N[C@@H]4C(=O)N[C@H](C(C)C)C(=O)N5CCC[C@H]5C(=O)N(C)CC(=O)N(C)[C@@H](C(C)C)C(=O)O[C@@H]4C)c3nc-2c(C(=O)N[C@@H]2C(=O)N[C@H](C(C)C)C(=O)N3CCC[C@H]3C(=O)N(C)CC(=O)N(C)[C@@H](C(C)C)C(=O)O[C@@H]2C)c(N)c1=O: 0.183

In: Give normalised cell viability for the following compound: Cl.N[C@@H](CCC(=O)O)C(=O)O [L-Glutamic acid hydrochloride]
Out: 0.989

// data source = the supplement of paper PMC8285479
